Please go through the items and note down their Plant response rating, Pigweed.
Test system: pigweed (Amaranthus retroflexus)
assay-overview: Test C preemergence
Assay type: in vivo
cond: preemergence, Rate 31 g/ha, scale 0 to 100
Please give the numeric answer without any surrounding text.

Qu. Request the reported Plant response rating, Pigweed associated with CC(C)c1ccn(C2OCN(c3cccc(C(F)(F)F)c3)C2=O)n1 (centres unmarked) [Compound 27]
Ans. 100

Qu. Request the reported Plant response rating, Pigweed associated with CCOc1cc(N2CCC(n3ccc(C(C)(C)C)n3)C2=O)ccc1C (centres unmarked) [Compound 106]
Ans. 70

Qu. Request the reported Plant response rating, Pigweed associated with CCC(CC)c1ccn(C2SCN(c3cccc(C(F)(F)F)c3)C2=O)n1 (centres unmarked) [Compound 25]
Ans. 100

Qu. Request the reported Plant response rating, Pigweed associated with COc1cc(N2CCC(n3ccc(C(C)(C)C)n3)C2=O)ccc1C (centres unmarked) [Compound 42]
Ans. 0

Qu. Request the reported Plant response rating, Pigweed associated with CC(C)(C)c1ccn(C2CCN(c3ccc(Cl)c(Cl)c3)C2=O)n1 (centres unmarked) [Compound 34]
Ans. 0

Qu. Request the reported Plant response rating, Pigweed associated with CC(C)(C)c1ccn(C2CCN(c3cccc(OC(F)(F)F)c3)C2=O)n1 (centres unmarked) [Compound 49]
Ans. 70

Qu. Request the reported Plant response rating, Pigweed associated with CC(C)Oc1cccc(N2CCC(n3ccc(C(C)(C)C)n3)C2=O)c1 (centres unmarked) [Compound 70]
Ans. 0

Qu. Request the reported Plant response rating, Pigweed associated with Cc1cc(C)nc(N2CCC(n3ccc(C(C)(C)C)n3)C2=O)c1 (centres unmarked) [Compound 138]
Ans. 0

Where do the numbers come from? From patent US7138361B2.
